- test settings: 293.15 K; 101.33 kPa; Liquid
measured metric: mass density (kg/m3)

> print(dat)
                                 molecule  measured.metric  value.measured
1                                       O     mass density           998.4
2  CC(=O)OC1CCCCC1 [cyclohexyl ethanoate]     mass density           968.2
3         CCCCCOC(C)=O [pentyl ethanoate]     mass density             875
4                               OC1CCCCC1     mass density           962.3
5                                    CCCO     mass density           803.5

====

- assay comment: refractive index (Na D-line) (dimensionless)
- test settings: 293.15 K; 101.33 kPa; Liquid; Standard Abbe refractometry
measured metric: refractive index

> print(dat)
                                 compound  value.measured
1                                       O          1.3326
2  CC(=O)OC1CCCCC1 [cyclohexyl ethanoate]          1.4422
3                                    CCCO           1.385
4         CCCCCOC(C)=O [pentyl ethanoate]          1.4026
5                               OC1CCCCC1          1.4639

Each recorded value in this set is attributed to the NIST ThermoML archive (doi:10.1016/j.fluid.2007.01.021).
